B1: SLC35F2 (parent)
chain: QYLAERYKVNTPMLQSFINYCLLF

Variants of: B1
experimental_details: protein stability index of a GFP-peptide fusion (GPS, HEK-293T) (PSI 1-6); higher = more stable;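 further: lentivirally expressed fusions sorted by FACS into six bins by GFP to DsRed ratio, PSI derived from sequencing read proportions per bin multiplied by bin number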
experimental_parameters: c terminus: a fixed tail appended
Measured protein stability index by item
readout_type: protein stability index

[[record]]
variant_notation = "N10Y"
number = 2.75

[[record]]
variant_notation = "Y7S"
number = 2.48

[[record]]
variant_notation = "S16T"
number = 1.72

[[record]]
variant_notation = "K8S"
number = 3.15

[[record]]
variant_notation = "I18M"
number = 2.56

[[record]]
variant_notation = "V9P"
number = 2.24

[[record]]
variant_notation = "A4E"
number = 2.76

[[record]]
variant_notation = "R6G"
number = 2

[[record]]
variant_notation = "S16A"
number = 2.43

[[record]]
variant_notation = "P12R"
number = 3.12

[[record]]
variant_notation = "Y7I"
number = 2.21

[[record]]
variant_notation = "C21S"
number = 2.67

[[record]]
variant_notation = "Y7N"
number = 2.89

[[record]]
variant_notation = "Q15D"
number = 3.24

